The values you see were collected from ChEMBL document CHEMBL3992510.

compounds and their reported selectivity ratio
Experiment: Selectivity index, ratio of EC50 for human CRL8155 cells to EC50 for Trypanosoma brucei brucei BF427
Format: toxicity
Details: read-out: Ratio EC50

| COMPOUND | selectivity ratio |
| --- | --- |
| O=C(N/C=C/c1nc(-c2cccc(F)c2)cs1)N1CCCCC1 | > 529 |
| O=C(Nc1ccc2sc(-c3ccc(F)c(F)c3)nc2c1)N1CCCCC1 | > 224 |
| O=C(Nc1ccc2sc(-c3ccc(F)c(F)c3)nc2c1)N1CCC(F)CC1 | > 147 |
| O=C(Nc1ccc2sc(-c3cccc(F)c3)nc2c1)N1CCCCC1 | > 287 |
| O=C(NCCc1nc(-c2cccc(F)c2)cs1)N1CCCC(F)C1 (centres undefined) | > 1750 |
| O=C(Nc1ccc2sc(-c3ccc(F)cc3)nc2c1)N1CCCCC1 | > 117 |
| O=C(Nc1ccc2sc(-c3ccccc3)nc2c1)N1CCCCC1 | > 137 |
| O=C(Nc1ccc2sc(-c3ccccc3)nc2c1)c1cccs1 | > 57 |
| N=C(N)c1ccc(OCCCCCOc2ccc(C(=N)N)cc2)cc1 | > 43200 |
| O=C(Nc1ccc2sc(-c3cccc(F)c3)nc2c1)N1CCCC1 | > 316 |
| O=C(NCCc1nc(-c2cccc(F)c2)cs1)N1CCC(F)CC1 | > 1370 |
| O=C(Nc1ccc2sc(-c3ccc(F)c(F)c3)nc2c1)N1CC[C@H](F)C1 | > 1440 |
| O=C(Nc1ccc2sc(-c3ccccc3)nc2c1)N1CCCC1 | > 154 |
| O=C(Nc1ccc2sc(-c3ccc(F)c(F)c3)nc2c1)N1CC[C@@H](F)C1 | > 153 |
